Entries and their MIC
# System: Staphylococcus aureus
# method-summary: Antibacterial activity against Staphylococcus aureus ATCC 29213 assessed as bacterial growth inhibition incubated for 16 to 18 hrs by CLSI based susceptibility testing method
# Type: functional
# measurement-setup: time 16-18 hrs

Some compounds with known MIC results, for comparison:
• Cc1nc(/N=C2\NC(=O)/C(=C/c3cc(C)n(-c4ccccc4Br)c3C)S2)sc1C = > 64 µg/mL
• Cc1nc(/N=C2\NC(=O)/C(=C/c3cc(C)n(-c4ccc(Cl)cc4)c3C)S2)sc1C = > 64 µg/mL
• Cc1nc(/N=C2\NC(=O)/C(=C/c3cc(C)n(-c4cccc(Cl)c4)c3C)S2)sc1C = > 64 µg/mL
• Cc1nc(/N=C2\NC(=O)/C(=C/c3cc(C)n(-c4ccccc4)c3C)S2)sc1C = > 64 µg/mL

Item under review: Cc1ccc(-n2c(C)cc(/C=C3\S/C(=N/c4nccs4)NC3=O)c2C)cc1C . Reported MIC?
16 µg/mL

May I ask what MIC has been recorded for Cc1cc(/C=C2\S/C(=N/c3nccs3)NC2=O)c(C)n1-c1ccccc1O ?
1 µg/mL
